# measured.target: Substance-P receptor (Cavia porcellus, UniProt P30547)
# Sequence (P30547 whole entry): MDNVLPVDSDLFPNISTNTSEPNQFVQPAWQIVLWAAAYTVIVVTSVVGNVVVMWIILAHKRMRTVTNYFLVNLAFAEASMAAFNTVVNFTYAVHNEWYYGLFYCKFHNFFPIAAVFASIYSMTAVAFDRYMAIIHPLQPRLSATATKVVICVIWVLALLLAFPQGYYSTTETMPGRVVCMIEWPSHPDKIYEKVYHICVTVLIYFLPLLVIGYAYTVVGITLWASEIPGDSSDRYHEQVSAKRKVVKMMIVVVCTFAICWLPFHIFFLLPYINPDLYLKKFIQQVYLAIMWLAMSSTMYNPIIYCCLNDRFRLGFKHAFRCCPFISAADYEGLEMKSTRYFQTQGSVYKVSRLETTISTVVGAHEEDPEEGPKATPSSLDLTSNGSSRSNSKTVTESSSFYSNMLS
# assay.overview: Tested for Tachykinin receptor 1 […] activity by measuring its ability to inhibit contractions evoked by [Sar9,Met(O2)11]-SP (4 nM) in guinea pig ileum
# Format: functional, tissue-based
readout.type: IC50
Please answer in the form of a number followed by its unit of measurement.

Entry CC(=O)Nc1ccccc1NC(=O)N1CCC[C@H]1C(=O)N[C@@H](Cc1ccc2ccccc2c1)C(=O)N(C)Cc1ccccc1 , system Substance-P receptor (Cavia porcellus, UniProt P30547): what IC50 was measured?
7.5 nM

* * *

Below, each entry is listed with its recorded log10(Ki).
# measured.target: Substance-P receptor (Homo sapiens, UniProt P25103)
# Sequence (P25103 whole entry): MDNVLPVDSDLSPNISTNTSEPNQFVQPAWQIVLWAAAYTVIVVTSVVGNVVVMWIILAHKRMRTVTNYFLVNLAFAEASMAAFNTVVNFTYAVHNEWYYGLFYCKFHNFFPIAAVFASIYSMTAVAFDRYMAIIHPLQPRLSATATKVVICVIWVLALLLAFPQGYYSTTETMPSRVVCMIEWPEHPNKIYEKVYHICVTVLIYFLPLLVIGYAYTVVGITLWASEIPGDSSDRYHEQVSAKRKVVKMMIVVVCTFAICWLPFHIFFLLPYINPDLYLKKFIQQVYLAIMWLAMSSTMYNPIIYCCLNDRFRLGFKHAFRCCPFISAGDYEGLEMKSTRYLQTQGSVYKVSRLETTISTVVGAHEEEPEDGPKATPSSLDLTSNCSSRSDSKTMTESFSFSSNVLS
Base-10 log of Ki, unit nM.

Entry CN(C)C(=O)c1ccccc1NC(=O)N1CCC[C@H]1C(=O)N[C@@H](Cc1ccc2ccccc2c1)C(=O)N(C)Cc1ccccc1 , system Substance-P receptor (Homo sapiens, UniProt P25103): what log10(Ki) was measured?
0.79
